target_or_test_system: Vascular endothelial growth factor receptor 2 (Homo sapiens) (UniProt P35968)
Sequence (P35968 whole entry): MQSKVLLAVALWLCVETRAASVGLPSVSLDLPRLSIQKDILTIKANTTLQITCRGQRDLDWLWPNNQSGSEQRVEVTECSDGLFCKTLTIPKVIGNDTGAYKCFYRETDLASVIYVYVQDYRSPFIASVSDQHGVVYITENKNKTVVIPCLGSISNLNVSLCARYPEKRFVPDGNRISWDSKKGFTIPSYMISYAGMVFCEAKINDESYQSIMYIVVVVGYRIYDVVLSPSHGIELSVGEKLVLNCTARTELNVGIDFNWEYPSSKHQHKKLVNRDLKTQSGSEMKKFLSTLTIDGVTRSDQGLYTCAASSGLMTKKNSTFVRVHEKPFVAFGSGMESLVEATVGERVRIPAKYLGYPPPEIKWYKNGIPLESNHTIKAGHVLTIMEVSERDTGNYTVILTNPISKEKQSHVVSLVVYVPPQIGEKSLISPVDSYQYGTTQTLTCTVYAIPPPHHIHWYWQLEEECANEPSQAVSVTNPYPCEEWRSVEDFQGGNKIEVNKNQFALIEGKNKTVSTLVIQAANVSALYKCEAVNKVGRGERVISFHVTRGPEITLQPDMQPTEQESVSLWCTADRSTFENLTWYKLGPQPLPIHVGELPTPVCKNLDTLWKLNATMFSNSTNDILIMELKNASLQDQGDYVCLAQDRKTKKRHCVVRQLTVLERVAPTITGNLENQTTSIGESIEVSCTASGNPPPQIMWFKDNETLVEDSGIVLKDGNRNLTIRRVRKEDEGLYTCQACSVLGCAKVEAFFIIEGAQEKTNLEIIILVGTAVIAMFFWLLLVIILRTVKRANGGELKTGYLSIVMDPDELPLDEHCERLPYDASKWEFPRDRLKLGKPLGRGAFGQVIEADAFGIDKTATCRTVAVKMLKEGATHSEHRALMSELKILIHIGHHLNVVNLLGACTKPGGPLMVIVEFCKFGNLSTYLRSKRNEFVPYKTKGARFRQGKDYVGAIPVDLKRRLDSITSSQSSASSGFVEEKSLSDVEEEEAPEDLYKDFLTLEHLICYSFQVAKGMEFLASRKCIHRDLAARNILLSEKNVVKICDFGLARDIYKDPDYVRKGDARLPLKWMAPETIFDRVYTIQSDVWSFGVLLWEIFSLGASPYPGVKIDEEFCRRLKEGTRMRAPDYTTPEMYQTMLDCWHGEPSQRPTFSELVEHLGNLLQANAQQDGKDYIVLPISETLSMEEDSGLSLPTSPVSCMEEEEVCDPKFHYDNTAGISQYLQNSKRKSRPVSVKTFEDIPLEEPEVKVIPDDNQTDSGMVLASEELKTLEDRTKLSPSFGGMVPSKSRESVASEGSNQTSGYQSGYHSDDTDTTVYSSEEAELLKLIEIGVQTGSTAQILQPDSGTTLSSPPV
procedure_summary: Inhibition of recombinant human KDR (790 to end residues) assessed as residual activity at 1 uM using myelin basic protein as substrate incubated for 40 mins by [gamma-33P]-ATP scintillation counting based radiometry assay relative to control
For each of the molecules below, state its Activity.
# output: bare number, implied unit %

Q: For the molecule CN1CCN(CCCN2CCc3c(sc4ncnc(Nc5ccc(N(C)C)c(NC(=O)c6ccco6)c5)c34)C2)CC1 , give its measured Activity value.
Result: 88

Q: Identify measured Activity corresponding to CN(C)c1ccc(Nc2ncnc3sc4c(c23)CCNC4)cc1NC(=O)c1ccncc1
Result: 92

Q: Supply recorded Activity for CN(C)c1ccc(Nc2ncnc3sc4c(c23)CCNC4)cc1NC(=O)c1cccc2ccccc12 here.
Result: 88

Data origin, for the record: ChEMBL document CHEMBL4765301
